Origin of values: ChEMBL document CHEMBL1155356

# assay-info: Oxidative metabolic stability in human liver microsomes at 1 uM after 30 mins in presence of 1 mM NADPH
# Assay type: ADME, Microsome
# condition-info: liver microsomes, read-out: Stability
observable: remaining at 0.5 h, 1 µM (%)

Observe how each entry below is paired with its result.
Form field remaining at 0.5 h, 1 µM, entry N#Cc1ccc(S(=O)(=O)N2c3ccccc3-c3n[nH]cc3C2C2CC2)cc1 (racemic) : 9

Form field remaining at 0.5 h, 1 µM, entry CC1c2c[nH]nc2-c2cc(F)ccc2N1S(=O)(=O)c1cn(C)cn1 (racemic) : 76

Form field remaining at 0.5 h, 1 µM, entry CC(C)C1c2c[nH]nc2-c2ccccc2N1S(=O)(=O)c1ccc(Cl)cc1 (racemic) : 1

Form field remaining at 0.5 h, 1 µM, entry Cc1nc2c(s1)N(S(=O)(=O)c1ccc(C(F)(F)F)cc1)C(C1CC1)c1c[nH]nc1-2 (racemic) : 31

Form field remaining at 0.5 h, 1 µM, entry O=S(=O)(c1ccc(OC(F)F)cc1)N1c2ccc(F)cc2-c2n[nH]cc2C1C1CC1 (racemic) : 68

(1) CC1c2cn[nH]c2-c2ccc(O)cc2N1S(=O)(=O)c1ccc(Cl)cc1 (racemic)
(2) O=S(=O)(c1ccc(Cl)cc1)N1Cc2c[nH]nc2-c2ccccc21
(3) CC1c2c[nH]nc2-c2ccccc2N1S(=O)(=O)c1ccc(Cl)cc1 (racemic)
(4) O=C1OCCN1c1ccc2c(c1)N(S(=O)(=O)c1ccc(C(F)(F)F)cc1)C(C1CC1)c1c[nH]nc1-2 (racemic)
[in] # desc sort on remaining at 0.5 h, 1 µM across 4 compounds Rank them, then answer with their labels in that order.
[out] 1, 4, 3, 2
